Target: mushroom TYR (tyrosinase)
Experiment: dopachrome formation from L-DOPA (A475), commercial mushroom TYR; IC50 […] at […] L-DOPA, […] at […]; also traps dopaquinone
Observed Property: IC50 (µM)

| Compound | Observed |
| --- | --- |
| NC(=O)[C@@H](N)CS [C-NH2, L-Cysteinamide] | 115 |
